test system: Staphylococcus aureus ATCC 12600
Threshold check on MIC: strictly below 3 µg/mL is label 1; on or above 3 µg/mL is label 0.

Use the examples below as a reference point.
# COMPOUND, GROUP LABEL
data = [
    ("COC(=O)N/C=C/CCC(C)c1cc(O)c(C(=O)C(C)=Cc2ccc(OCCC(C)C)cc2)c(=O)o1 (mixture of isomers)", "label 0"),
    ("CCCCc1ccc(C=C(C)C(=O)c2c(O)cc(C(C)CC/C=C/NC(=O)OC)oc2=O)cc1 (mixture of isomers)", "label 1"),
    ("CCCc1cn(C)c(C=C(C)C(=O)c2c(O)cc(C(C)CC/C=C/NC(=O)OC)oc2=O)n1 (mixture of isomers)", "label 0"),
    ("COC(=O)N/C=C/CCC(C)c1cc(O)c(C(=O)C(C)=Cc2ccc(OCC(F)F)cc2)c(=O)o1 (mixture of isomers)", "label 0"),
    ("COC(=O)N/C=C/CCC(C)c1cc(O)c(C(=O)C(C)=Cc2cc3ccc(CCC(F)(F)F)cc3s2)c(=O)o1 (mixture of isomers)", "label 0"),
]

Ask | Is MIC strictly under 3 µg/mL for the entry COC(=O)N/C=C/CCC(C)c1cc(O)c(C(=O)C(C)=Cc2ccc(OCCC(F)(F)F)s2)c(=O)o1 (mixture of isomers) ?
Reply | label 1

====

Listed compounds paired with reported IC50
biological target: E. coli RNA polymerase σ^70 holoenzyme (Escherichia coli, UniProt P0A8T7+P0A8V2); test: Fluorescence-detected RNA polymerase assay, E. coli RNA polymerase; conditions: read-out: IC50 E. coli RNAP
Sequence (P0A8T7 whole entry): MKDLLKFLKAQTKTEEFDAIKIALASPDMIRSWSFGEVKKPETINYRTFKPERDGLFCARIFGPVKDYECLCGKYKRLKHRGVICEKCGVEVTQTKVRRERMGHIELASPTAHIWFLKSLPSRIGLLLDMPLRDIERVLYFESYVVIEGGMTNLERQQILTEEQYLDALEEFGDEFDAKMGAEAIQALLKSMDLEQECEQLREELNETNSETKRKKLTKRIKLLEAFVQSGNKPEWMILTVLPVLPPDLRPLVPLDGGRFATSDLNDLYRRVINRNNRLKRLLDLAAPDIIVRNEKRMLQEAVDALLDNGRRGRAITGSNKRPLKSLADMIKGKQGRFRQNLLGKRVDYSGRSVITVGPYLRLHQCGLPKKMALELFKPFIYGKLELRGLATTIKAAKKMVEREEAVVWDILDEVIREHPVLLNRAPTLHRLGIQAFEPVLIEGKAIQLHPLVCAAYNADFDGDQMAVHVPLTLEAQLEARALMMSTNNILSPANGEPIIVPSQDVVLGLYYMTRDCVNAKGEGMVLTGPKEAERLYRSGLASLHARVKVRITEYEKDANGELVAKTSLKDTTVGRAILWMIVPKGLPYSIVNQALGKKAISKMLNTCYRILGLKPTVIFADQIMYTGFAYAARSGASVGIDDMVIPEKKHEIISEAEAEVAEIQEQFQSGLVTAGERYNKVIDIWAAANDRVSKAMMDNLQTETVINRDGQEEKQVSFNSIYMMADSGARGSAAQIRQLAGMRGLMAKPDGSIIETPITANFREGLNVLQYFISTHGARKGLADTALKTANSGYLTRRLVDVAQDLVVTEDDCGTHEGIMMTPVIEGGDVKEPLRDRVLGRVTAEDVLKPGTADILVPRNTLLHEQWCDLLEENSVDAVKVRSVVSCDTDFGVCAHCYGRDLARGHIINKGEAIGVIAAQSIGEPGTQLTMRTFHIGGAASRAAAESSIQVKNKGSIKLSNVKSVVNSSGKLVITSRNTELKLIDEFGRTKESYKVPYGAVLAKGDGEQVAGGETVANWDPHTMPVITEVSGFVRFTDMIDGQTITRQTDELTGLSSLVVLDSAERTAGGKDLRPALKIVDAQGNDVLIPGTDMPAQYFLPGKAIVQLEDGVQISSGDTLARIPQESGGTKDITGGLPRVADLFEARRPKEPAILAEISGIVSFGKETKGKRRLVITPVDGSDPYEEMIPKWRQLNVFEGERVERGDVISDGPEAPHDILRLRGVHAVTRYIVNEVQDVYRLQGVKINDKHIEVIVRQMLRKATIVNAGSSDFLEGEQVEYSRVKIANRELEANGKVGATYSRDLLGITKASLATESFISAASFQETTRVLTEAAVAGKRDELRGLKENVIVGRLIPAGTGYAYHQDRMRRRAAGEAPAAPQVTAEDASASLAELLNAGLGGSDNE
Sequence (P0A800 whole entry, further chain): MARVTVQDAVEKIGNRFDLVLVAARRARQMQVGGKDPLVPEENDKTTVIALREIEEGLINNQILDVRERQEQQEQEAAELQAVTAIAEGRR
Sequence (P0A8V2 whole entry): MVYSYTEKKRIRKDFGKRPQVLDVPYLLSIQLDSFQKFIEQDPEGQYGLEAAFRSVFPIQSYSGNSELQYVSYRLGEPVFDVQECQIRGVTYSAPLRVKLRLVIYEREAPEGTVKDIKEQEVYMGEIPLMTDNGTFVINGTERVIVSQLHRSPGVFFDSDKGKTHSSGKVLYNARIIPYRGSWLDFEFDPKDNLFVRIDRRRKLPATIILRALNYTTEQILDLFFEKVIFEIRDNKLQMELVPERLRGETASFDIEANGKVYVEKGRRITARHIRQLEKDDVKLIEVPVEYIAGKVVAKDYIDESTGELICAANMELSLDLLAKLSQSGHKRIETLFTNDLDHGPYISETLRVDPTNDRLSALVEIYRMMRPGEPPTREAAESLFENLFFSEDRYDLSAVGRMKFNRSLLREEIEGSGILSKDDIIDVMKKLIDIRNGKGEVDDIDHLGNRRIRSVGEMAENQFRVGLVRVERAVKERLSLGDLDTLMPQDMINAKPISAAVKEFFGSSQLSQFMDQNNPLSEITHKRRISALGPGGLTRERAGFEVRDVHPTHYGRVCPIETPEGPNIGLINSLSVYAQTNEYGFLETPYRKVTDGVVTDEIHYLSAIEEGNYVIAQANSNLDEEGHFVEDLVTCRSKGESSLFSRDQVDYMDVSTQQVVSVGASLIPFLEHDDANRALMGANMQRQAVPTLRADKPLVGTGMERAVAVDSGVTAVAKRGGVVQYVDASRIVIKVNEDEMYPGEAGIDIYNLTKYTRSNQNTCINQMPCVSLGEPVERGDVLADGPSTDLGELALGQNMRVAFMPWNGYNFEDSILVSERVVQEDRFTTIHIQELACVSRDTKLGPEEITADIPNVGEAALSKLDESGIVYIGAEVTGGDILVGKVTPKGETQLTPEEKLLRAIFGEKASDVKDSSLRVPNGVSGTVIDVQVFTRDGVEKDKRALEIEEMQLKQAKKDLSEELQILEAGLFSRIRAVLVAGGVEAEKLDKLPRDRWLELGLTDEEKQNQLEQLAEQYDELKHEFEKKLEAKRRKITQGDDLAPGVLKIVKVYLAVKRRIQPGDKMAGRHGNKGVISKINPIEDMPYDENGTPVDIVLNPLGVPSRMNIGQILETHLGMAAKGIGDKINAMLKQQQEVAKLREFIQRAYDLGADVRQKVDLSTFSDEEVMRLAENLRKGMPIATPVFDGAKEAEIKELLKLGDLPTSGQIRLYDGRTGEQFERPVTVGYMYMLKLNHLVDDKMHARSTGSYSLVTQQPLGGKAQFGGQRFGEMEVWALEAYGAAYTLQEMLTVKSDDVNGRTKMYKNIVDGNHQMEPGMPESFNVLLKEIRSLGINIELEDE
Sequence (P00579 whole entry, further chain): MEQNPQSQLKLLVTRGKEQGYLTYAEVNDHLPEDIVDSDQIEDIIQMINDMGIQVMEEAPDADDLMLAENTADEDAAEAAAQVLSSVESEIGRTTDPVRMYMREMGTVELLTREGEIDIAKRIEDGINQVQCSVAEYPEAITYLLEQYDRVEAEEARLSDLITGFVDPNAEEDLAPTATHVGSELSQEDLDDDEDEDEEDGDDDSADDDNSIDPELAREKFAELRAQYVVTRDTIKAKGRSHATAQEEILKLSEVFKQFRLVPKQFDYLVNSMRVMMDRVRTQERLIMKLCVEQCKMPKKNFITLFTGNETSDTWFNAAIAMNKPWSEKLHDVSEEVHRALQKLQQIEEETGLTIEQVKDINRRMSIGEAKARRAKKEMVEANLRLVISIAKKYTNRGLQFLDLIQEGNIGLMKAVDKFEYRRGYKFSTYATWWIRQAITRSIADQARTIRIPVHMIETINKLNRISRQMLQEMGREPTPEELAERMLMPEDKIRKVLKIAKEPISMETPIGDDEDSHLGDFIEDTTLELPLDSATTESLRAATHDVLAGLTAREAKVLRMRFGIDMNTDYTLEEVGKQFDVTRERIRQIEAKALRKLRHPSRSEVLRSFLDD
Sequence (P0A7Z4 whole entry, further chain): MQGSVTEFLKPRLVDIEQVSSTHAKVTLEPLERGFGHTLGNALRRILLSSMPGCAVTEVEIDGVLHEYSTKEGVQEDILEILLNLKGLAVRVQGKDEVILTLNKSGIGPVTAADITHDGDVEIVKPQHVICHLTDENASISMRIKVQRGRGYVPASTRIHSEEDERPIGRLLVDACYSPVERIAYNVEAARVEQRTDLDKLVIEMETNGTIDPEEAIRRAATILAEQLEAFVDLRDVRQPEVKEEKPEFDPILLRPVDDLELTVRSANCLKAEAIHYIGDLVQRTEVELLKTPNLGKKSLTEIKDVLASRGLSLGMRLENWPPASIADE

In the examples that follow, each entry is paired with its recorded IC50.
# COMPOUND, IC50
rows = [
    ("COCCCc1ccc(C=C(C)C(=O)c2c(O)cc(C(C)CC/C=C/NC(=O)OC)oc2=O)s1 (mixture of isomers)", "60 nM"),
    ("CCOCc1ccc(C=C(C)C(=O)c2c(O)cc(C(C)CC/C=C/NC(=O)OC)oc2=O)s1 (mixture of isomers)", "300 nM"),
    ("CCCCCCc1ccc(C=C(C)C(=O)c2c(O)cc(C(C)CC/C=C/NC(=O)OC)oc2=O)cn1 (mixture of isomers)", "90 nM"),
]

We next turn to a different compound, shown below.
Ask | What value of IC50 has been recorded for this entry: COC(=O)N/C=C/CCC(C)c1cc(O)c(C(=O)C(C)=Cc2ccc(CC3CC3)s2)c(=O)o1 (mixture of isomers)
Reply | 40 nM

====

test system: Francisella tularensis SCHU4; assay: microbe, parasite or virus in culture; assay type: cell-based; conditions: Francisella tularensis, SCHU4, read-out: MIC F. tularensis SCHU4
Listed molecules paired with reported MIC
Respond numerically; units are µg/mL and should not be typed.

In the examples that follow, each entry is paired with its recorded MIC.
# MOLECULE, ASSAY SYSTEM, UNIT SYMBOL, MIC
measured = [
    ("COC(=O)N/C=C/CCC(C)c1cc(O)c(C(=O)C(C)=Cc2ccc(CCC(C)C)cc2)c(=O)o1 (mixture of isomers) [APY73]", "Francisella tularensis SCHU4", "µg/mL", 10),
    ("CCCOc1cccc(C=C(C)C(=O)c2c(O)cc(C(C)CC/C=C/NC(=O)OC)oc2=O)c1 (mixture of isomers) [APY43]", "Francisella tularensis SCHU4", "µg/mL", 30),
    ("COC(=O)N/C=C/CCC(C)c1cc(O)c(C(=O)C(C)=Cc2sc(CCC(C)C)cc2C)c(=O)o1 (mixture of isomers) [APY76]", "Francisella tularensis SCHU4", "µg/mL", 10),
]

Ask | What value of MIC has been recorded for this entry: COC(=O)N/C=C/CCC(C)c1cc(O)c(C(=O)C(C)=Cc2cnc(CCC(C)C)s2)c(=O)o1 (mixture of isomers) [APY137]
Reply | 50

Ask | What value of MIC has been recorded for this entry: COC(=O)N/C=C/CCC(C)c1cc(O)c(C(=O)C(C)=Cc2ccc(OCC(C)C)cc2)c(=O)o1 (mixture of isomers) [APY53]
Reply | 50

Ask | What value of MIC has been recorded for this entry: CCCCCCc1cccc(C=C(C)C(=O)c2c(O)cc(C(C)CC/C=C/NC(=O)OC)oc2=O)c1 (mixture of isomers) [APY34]
Reply | 6

Ask | What value of MIC has been recorded for this entry: COC(=O)N/C=C/CCC(C)c1cc(O)c(C(=O)C(C)=Cc2ccc(CCCC3CCCCC3)s2)c(=O)o1 (mixture of isomers) [APY32]
Reply | 0.8

Ask | What value of MIC has been recorded for this entry: CCCCc1ccc(C=C(C)C(=O)c2c(O)cc(C(C)CCCCNC(=O)OC)oc2=O)s1 (mixture of isomers) [APY67]
Reply | 50

Ask | What value of MIC has been recorded for this entry: CCCCc1ccc(C=C(C)C(=O)c2c(O)cc(C(C)CC/C=C/NC(=O)OC)oc2=O)cc1 (mixture of isomers) [APY41]
Reply | 6

Ask | What value of MIC has been recorded for this entry: COC(=O)N/C=C/CCC(C)c1cc(O)c(C(=O)C(C)=Cc2ccc(CCC(F)(F)F)cc2)c(=O)o1 (mixture of isomers) [APY74]
Reply | 50

Ask | What value of MIC has been recorded for this entry: COC(=O)N/C=C/CCC(C)c1cc(O)c(C(=O)C(C)=Cc2ccc(OCC3CCCC3)cc2)c(=O)o1 (mixture of isomers) [APY52]
Reply | 30

Ask | What value of MIC has been recorded for this entry: COC(=O)N/C=C/CCC(C)c1cc(O)c(C(=O)C(C)=Cc2ccc(CC(C)C)s2)c(=O)o1 (mixture of isomers) [APY60]
Reply | 10

Ask | What value of MIC has been recorded for this entry: COC(=O)N/C=C/CCC(C)c1cc(O)c(C(=O)C(C)=Cc2ccc(CCCCCC(F)(F)F)s2)c(=O)o1 (mixture of isomers) [APY82]
Reply | 10

Ask | What value of MIC has been recorded for this entry: CCCCCCc1ccc2oc(C=C(C)C(=O)c3c(O)cc(C(C)CC/C=C/NC(=O)OC)oc3=O)cc2c1 (mixture of isomers) [APY20]
Reply | 0.8

Ask | What value of MIC has been recorded for this entry: CCCCCCc1ccc(C=C(C)C(=O)c2c(O)cc(C(C)CC/C=C/NC(=O)OC)oc2=O)cn1 (mixture of isomers) [APY37]
Reply | 50

Ask | What value of MIC has been recorded for this entry: CCc1ccc(C=C(C)C(=O)c2c(O)cc(C(C)CC/C=C/NC(=O)OC)oc2=O)s1 (mixture of isomers) [APY64]
Reply | 50

Ask | What value of MIC has been recorded for this entry: C=CCCc1ccc(C=C(C)C(=O)c2c(O)cc(C(C)CC/C=C/NC(=O)OC)oc2=O)s1 (mixture of isomers) [APY28]
Reply | 30

Ask | What value of MIC has been recorded for this entry: CCCCc1ccc2oc(C=C(C)C(=O)c3c(O)cc(C(C)CC/C=C/NC(=O)OC)oc3=O)cc2c1 (mixture of isomers) [APY25]
Reply | 3

Ask | What value of MIC has been recorded for this entry: COC(=O)N/C=C/CCC(C)c1cc(O)c(C(=O)C(C)=Cc2cc(Br)c(CC(C)C)s2)c(=O)o1 (mixture of isomers) [APY120]
Reply | 50
